Reported pIC50 values, Platelet-derived growth factor receptor beta (Homo sapiens, UniProt P09619).
pIC50: −log10 of the molar value.
READOUT NAME: pIC50

These recorded examples may help you get a feel for the data.
SMILES TEXT: COc1ccc2c(c1)/C(=N/NC(=O)c1ccc(NC(=O)Nc3ccc(Cl)c(C(F)(F)F)c3)cc1)C(=O)N2
QUANTITATIVE READOUT: 7.00

SMILES TEXT: COc1cccc(NC(=O)Nc2ccc(C(=O)N/N=C3\C(=O)Nc4ccc(Br)cc43)cc2)c1
QUANTITATIVE READOUT: 5.80

SMILES TEXT: COc1ccc(NC(=O)Nc2ccc(C(=O)N/N=C3\C(=O)Nc4ccc(Br)cc43)cc2)cc1
QUANTITATIVE READOUT: 5.42

SMILES TEXT: O=C(Nc1ccc(C(=O)N/N=C2\C(=O)Nc3ccc(Br)cc32)cc1)Nc1ccc(Cl)c(C(F)(F)F)c1
QUANTITATIVE READOUT: 6.35

P. COc1ccc2c(c1)/C(=N/NC(=O)c1ccc(NC(=O)Nc3ccc(Cl)cc3)cc1)C(=O)N2
Q. COc1ccc(NC(=O)Nc2ccc(C(=O)N/N=C3\C(=O)Nc4ccc(OC)cc43)cc2)cc1
R. COc1cccc(NC(=O)Nc2ccc(C(=O)N/N=C3\C(=O)Nc4ccc(OC)cc43)cc2)c1
Let's sort these by pIC50, smallest first. Go ahead? Respond with the label ranking, as requested. P, Q, R
(P: 5.74, Q: 6.48, R: 6.96)

###

What follows is a collection of IC50 values obtained with Fibroblast growth factor receptor 1 (Homo sapiens, UniProt P11362).
Sequence (P11362 whole entry): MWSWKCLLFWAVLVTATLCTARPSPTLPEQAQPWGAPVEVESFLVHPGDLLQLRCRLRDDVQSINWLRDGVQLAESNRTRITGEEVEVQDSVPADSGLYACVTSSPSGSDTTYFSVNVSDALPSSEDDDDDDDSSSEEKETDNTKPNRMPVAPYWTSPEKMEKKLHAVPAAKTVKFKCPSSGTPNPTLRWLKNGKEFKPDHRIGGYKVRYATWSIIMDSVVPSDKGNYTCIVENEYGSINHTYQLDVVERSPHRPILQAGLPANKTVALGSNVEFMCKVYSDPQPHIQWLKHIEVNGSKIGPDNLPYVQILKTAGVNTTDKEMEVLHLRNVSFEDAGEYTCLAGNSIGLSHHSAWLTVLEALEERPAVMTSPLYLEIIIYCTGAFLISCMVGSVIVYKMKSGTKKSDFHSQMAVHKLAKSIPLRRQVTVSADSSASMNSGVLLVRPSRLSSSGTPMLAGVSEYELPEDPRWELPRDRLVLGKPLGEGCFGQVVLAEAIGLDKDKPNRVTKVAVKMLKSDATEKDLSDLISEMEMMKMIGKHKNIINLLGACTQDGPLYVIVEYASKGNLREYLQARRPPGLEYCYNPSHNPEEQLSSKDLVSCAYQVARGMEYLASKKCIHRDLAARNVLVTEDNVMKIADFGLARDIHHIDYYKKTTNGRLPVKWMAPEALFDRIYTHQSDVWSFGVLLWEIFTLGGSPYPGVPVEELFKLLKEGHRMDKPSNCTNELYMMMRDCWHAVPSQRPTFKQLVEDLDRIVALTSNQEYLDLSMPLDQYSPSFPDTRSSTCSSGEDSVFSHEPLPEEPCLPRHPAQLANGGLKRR
READOUT NAME: IC50 (nM)

Please review the following examples before continuing.
SMILES TEXT: COc1cccc(NC(=O)Nc2ccc(C(=O)N/N=C3\C(=O)Nc4ccc(OC)cc43)cc2)c1
IC50 / nM: 300
--
SMILES TEXT: COc1cccc(NC(=O)Nc2ccc(C(=O)N/N=C3\C(=O)Nc4ccc(Cl)cc43)cc2)c1
IC50 / nM: 420
--
SMILES TEXT: COc1ccc2c(c1)/C(=N/NC(=O)c1ccc(NC(=O)Nc3ccc(Cl)c(C(F)(F)F)c3)cc1)C(=O)N2
IC50 / nM: 230
--
SMILES TEXT: COc1ccc2c(c1)/C(=N/NC(=O)c1ccc(NC(=O)Nc3ccccc3)cc1)C(=O)N2
IC50 / nM: 280

A. O=C(Nc1ccc(C(=O)N/N=C2\C(=O)Nc3ccc(Br)cc32)cc1)Nc1ccc(Cl)c(C(F)(F)F)c1
B. COc1ccc(C(=O)Nc2ccc(C(=O)N/N=C3\C(=O)Nc4ccc(OC)cc43)cc2)cc1
Could you check which of A and B has a smaller value for IC50? Mark your selection by writing its label. A

Origin of measurements: ChEMBL document CHEMBL4330065
